Values were extracted from paper PMC9516332.

test system: 134 cancer cell lines; test: Cell viability assay (ATPlite, 72 hours), IC50 on cancer cell line panel; settings: Homo sapiens, RPMI-7951, read-out: IC50 in cell proliferation assay, cell line RPMI-7951 (BRAF p.V600E)
pIC50: −log10 of the molar value.
Cut-off 5 on pIC50, inclusive. At or above means yes (1); below means no (0).

1. Cn1cnc2c(F)c(Nc3ccc(Br)cc3F)c(C(=O)NOCCO)cc21 ... yes (1)
2. CCCS(=O)(=O)Nc1ccc(F)c(C(=O)c2c[nH]c3ncc(-c4ccc(Cl)cc4)cc23)c1F ... no (0)
3. COc1cc2ncnc(Nc3ccc(F)c(Cl)c3)c2cc1NC(=O)/C=C/CN1CCCCC1 ... yes (1)
4. Cc1cc(Nc2ncnc3ccc(NC4=NC(C)(C)CO4)cc23)ccc1Oc1ccn2ncnc2c1 ... no (0)
5. Cc1cc(Nc2ncc(Cl)c(Nc3ccccc3S(=O)(=O)C(C)C)n2)c(OC(C)C)cc1C1CCNCC1 ... yes (1)
6. O=C(c1ccc(F)c(F)c1Nc1ccc(I)cc1F)N1CC(O)([C@@H]2CCCCN2)C1 ... yes (1)
7. FC(F)(F)c1ccc(CNc2ccc(Cc3c[nH]c4ncc(Cl)cc34)cn2)cn1 ... no (0)
8. Cn1cnc2c(F)c(Nc3ccc(Br)cc3Cl)c(C(=O)NOCCO)cc21 ... yes (1)
9. C[C@H](Nc1ncnc2nc[nH]c12)c1cc2cccc(Cl)c2c(=O)n1-c1ccccc1 ... yes (1)

====

molecular target: panel of 255 wild-type kinases (Homo sapiens); assay: Kinase panel profiling at 1 µmol/L (MSA or IMAP), percentage inhibition; assay type: biochemical; settings: kinase SRPK1; 1 µmol/L single concentration; read-out: %-inhibition at 1 µmol/L, SRPK1
measured endpoint: inhibition at 1 µM (%)

1) Cc1nc(NC(=O)N2CCC[C@H]2C(N)=O)sc1-c1ccnc(C(C)(C)C(F)(F)F)c1 ... 6
2) CO[C@]1(C(=O)N[C@@H](C)c2ccc(-n3cc(F)cn3)nc2)CC[C@H](c2nc(C)cc(Nc3cc(C)[nH]n3)n2)CC1 ... -4
3) CN1CCN(c2ccc(C(=O)Nc3n[nH]c4ccc(Cc5cc(F)cc(F)c5)cc34)c(NC3CCOCC3)c2)CC1 ... 2.16
4) O=C(Nc1cnn2ccc(N3CCC[C@@H]3c3cc(F)ccc3F)nc12)N1CC[C@H](O)C1 ... -12
5) C=CC(=O)N1CCC([C@@H]2CCNc3c(C(N)=O)c(-c4ccc(Oc5ccccc5)cc4)nn32)CC1 ... -6
6) Cn1cnc2c(F)c(Nc3ccc(Br)cc3Cl)c(C(=O)NOCCO)cc21 ... 6
7) Cn1cnc2c(F)c(Nc3ccc(Br)cc3F)c(C(=O)NOCCO)cc21 ... -3.37
8) CCc1nc(C(N)=O)c(Nc2ccc(N3CCC(N4CCN(C)CC4)CC3)c(OC)c2)nc1NC1CCOCC1 ... -8

====

biological target: panel of 255 wild-type kinases (Homo sapiens, UniProt Q9NWZ3); assay: Kinase panel profiling at 1 µmol/L (MSA or IMAP), percentage inhibition; format: biochemical; details: kinase IRAK4; 1 µmol/L single concentration; read-out: %-inhibition at 1 µmol/L, IRAK4
Sequence (Q9NWZ3 whole entry): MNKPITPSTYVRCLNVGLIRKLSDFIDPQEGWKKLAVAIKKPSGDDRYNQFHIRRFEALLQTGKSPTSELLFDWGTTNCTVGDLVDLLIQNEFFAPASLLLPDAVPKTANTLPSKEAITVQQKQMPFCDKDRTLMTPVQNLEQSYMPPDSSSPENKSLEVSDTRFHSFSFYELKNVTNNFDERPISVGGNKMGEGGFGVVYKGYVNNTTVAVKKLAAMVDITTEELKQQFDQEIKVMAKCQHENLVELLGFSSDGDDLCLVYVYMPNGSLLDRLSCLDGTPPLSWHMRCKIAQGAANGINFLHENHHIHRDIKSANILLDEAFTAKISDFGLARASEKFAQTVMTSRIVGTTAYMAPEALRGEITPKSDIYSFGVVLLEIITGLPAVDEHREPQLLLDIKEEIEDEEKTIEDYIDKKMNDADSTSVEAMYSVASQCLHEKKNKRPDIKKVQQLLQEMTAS
# key: entry, value: inhibition at 1 µM
measured endpoint: inhibition at 1 µM (%)

1. Cc1cc(Nc2ncnc3ccc(NC4=NC(C)(C)CO4)cc23)ccc1Oc1ccn2ncnc2c1 ... 0.835
2. Cn1cc(-c2cc3c(N4CCN(c5ncc([C@@](C)(N)c6ccc(F)cc6)cn5)CC4)ncnn3c2)cn1 ... 12
3. Cc1nc(NC(=O)N2CCC[C@H]2C(N)=O)sc1-c1ccnc(C(C)(C)C(F)(F)F)c1 ... -3.77
4. CCN1C(=O)N(c2c(F)c(OC)cc(OC)c2F)Cc2cnc3[nH]c(CN4CCOCC4)cc3c21 ... 0.22
5. Cn1cnc2c(F)c(Nc3ccc(Br)cc3Cl)c(C(=O)NOCCO)cc21 ... -1.34
6. C[C@H](Nc1ncnc2nc[nH]c12)c1cc2cccc(Cl)c2c(=O)n1-c1ccccc1 ... 1.13
7. C[C@H]1Oc2cc(cnc2N)-c2c(nn(C)c2C#N)CN(C)C(=O)c2ccc(F)cc21 ... -1.47
8. CN1CCN(c2ccc(C(=O)Nc3n[nH]c4ccc(Cc5cc(F)cc(F)c5)cc34)c(NC3CCOCC3)c2)CC1 ... 8

====

# key: entry, value: inhibition at 1 µM
molecular target: panel of 255 wild-type kinases (Homo sapiens); test: Kinase panel profiling at 1 µmol/L (MSA or IMAP), percentage inhibition; type: biochemical; details: kinase SGK; 1 µmol/L single concentration; read-out: %-inhibition at 1 µmol/L, SGK
measured endpoint: inhibition at 1 µM (%)

1) C[C@H](Nc1ncnc2nc[nH]c12)c1cc2cccc(Cl)c2c(=O)n1-c1ccccc1 ... -3.47
2) COc1ccc(CN2C3CC2CN(c2ccc(-c4cc(OCC(C)(C)O)cn5ncc(C#N)c45)cn2)C3)cn1 ... 11
3) COc1cc2ncnc(Nc3ccc(F)c(Cl)c3)c2cc1NC(=O)/C=C/CN1CCCCC1 ... -6
4) CCN1CCN(c2ccc(Nc3cc(N(C)C(=O)Nc4c(Cl)c(OC)cc(OC)c4Cl)ncn3)cc2)CC1 ... -1.45
5) CCn1c(=O)c(-c2cc(NC(=O)Nc3ccccc3)c(F)cc2Br)cc2cnc(NC)cc21 ... -5
6) CN1CCN(c2ccc(C(=O)Nc3n[nH]c4ccc(Cc5cc(F)cc(F)c5)cc34)c(NC3CCOCC3)c2)CC1 ... -5.65
7) CCc1nc(C(N)=O)c(Nc2ccc(N3CCC(N4CCN(C)CC4)CC3)c(OC)c2)nc1NC1CCOCC1 ... 8.52
8) COC(=O)N[C@@H](C)CNc1nccc(-c2cn(C(C)C)nc2-c2cc(Cl)cc(NS(C)(=O)=O)c2F)n1 ... 7
9) Cc1cc(Nc2ncnc3ccc(NC4=NC(C)(C)CO4)cc23)ccc1Oc1ccn2ncnc2c1 ... 0.299
10) O=C(Nc1cnn2ccc(N3CCC[C@@H]3c3cc(F)ccc3F)nc12)N1CC[C@H](O)C1 ... -1.16
11) Cn1cc(-c2cc3c(N4CCN(c5ncc([C@@](C)(N)c6ccc(F)cc6)cn5)CC4)ncnn3c2)cn1 ... 0.775

====

system: 134 cancer cell lines; assay: Cell viability assay (ATPlite, 72 hours), IC50 on cancer cell line panel; conditions: Homo sapiens, DoTc2-4510, read-out: IC50 in cell proliferation assay, cell line DoTc2 4510
pIC50: −log10 of the molar value.
measured endpoint: pIC50

1) O=C(c1ccc(F)c(F)c1Nc1ccc(I)cc1F)N1CC(O)([C@@H]2CCCCN2)C1 ... 7.38
2) CN1CCN(c2ccc(C(=O)Nc3n[nH]c4ccc(Cc5cc(F)cc(F)c5)cc34)c(NC3CCOCC3)c2)CC1 ... 5.33
3) Cn1cnc2c(F)c(Nc3ccc(Br)cc3Cl)c(C(=O)NOCCO)cc21 ... 7.49

====

target: panel of 255 wild-type kinases (Homo sapiens); assay: Kinase panel profiling at 1 µmol/L (MSA or IMAP), percentage inhibition; format: biochemical; conditions: kinase INSR; 1 µmol/L single concentration; read-out: %-inhibition at 1 µmol/L, INSR
measured endpoint: inhibition at 1 µM (%)

1. COc1ccc(CN2C3CC2CN(c2ccc(-c4cc(OCC(C)(C)O)cn5ncc(C#N)c45)cn2)C3)cn1 [selpercatinib] ... 1.51
2. FC(F)(F)c1ccc(CNc2ccc(Cc3c[nH]c4ncc(Cl)cc34)cn2)cn1 [pexidartinib] ... 17
3. CCn1c(=O)c(-c2cc(NC(=O)Nc3ccccc3)c(F)cc2Br)cc2cnc(NC)cc21 [ripretinib] ... 1.55

====

target: UniProt:Q9BUB5; assay: Kinase panel profiling at 1 µmol/L (MSA or IMAP), percentage inhibition; assay type: biochemical; settings: MNK1; 1 µmol/L single concentration; read-out: %-inhibition, MNK1
Sequence (Q9BUB5 whole entry): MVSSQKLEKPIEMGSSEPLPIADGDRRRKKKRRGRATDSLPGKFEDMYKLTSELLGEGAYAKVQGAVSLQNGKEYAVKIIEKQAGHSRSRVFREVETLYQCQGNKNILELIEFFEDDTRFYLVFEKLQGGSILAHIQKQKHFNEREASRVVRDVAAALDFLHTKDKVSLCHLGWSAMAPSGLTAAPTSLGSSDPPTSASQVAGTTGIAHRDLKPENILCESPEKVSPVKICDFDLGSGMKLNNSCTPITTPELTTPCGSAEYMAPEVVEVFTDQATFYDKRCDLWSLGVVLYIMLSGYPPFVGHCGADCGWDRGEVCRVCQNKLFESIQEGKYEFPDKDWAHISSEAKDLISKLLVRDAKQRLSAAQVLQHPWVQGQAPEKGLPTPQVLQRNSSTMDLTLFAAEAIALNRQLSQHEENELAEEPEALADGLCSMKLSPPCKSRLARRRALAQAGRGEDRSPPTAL
# key: entry, value: inhibition at 1 µM
measured endpoint: inhibition at 1 µM (%)

1. C=CC(=O)N1CCC([C@@H]2CCNc3c(C(N)=O)c(-c4ccc(Oc5ccccc5)cc4)nn32)CC1 [zanubrutinib] ... -4.39
2. FC(F)(F)c1ccc(CNc2ccc(Cc3c[nH]c4ncc(Cl)cc34)cn2)cn1 [pexidartinib] ... 61
3. Cn1cnc2c(F)c(Nc3ccc(Br)cc3Cl)c(C(=O)NOCCO)cc21 [selumetinib] ... -6.56
4. CCc1nc(C(N)=O)c(Nc2ccc(N3CCC(N4CCN(C)CC4)CC3)c(OC)c2)nc1NC1CCOCC1 [gilteritinib] ... 70
5. CCN1C(=O)N(c2c(F)c(OC)cc(OC)c2F)Cc2cnc3[nH]c(CN4CCOCC4)cc3c21 [pemigatinib] ... -4.63
6. COc1ccc(CN2C3CC2CN(c2ccc(-c4cc(OCC(C)(C)O)cn5ncc(C#N)c45)cn2)C3)cn1 [selpercatinib] ... 42
7. Cc1nc(NC(=O)N2CCC[C@H]2C(N)=O)sc1-c1ccnc(C(C)(C)C(F)(F)F)c1 [alpelisib] ... 2.72
8. CO[C@]1(C(=O)N[C@@H](C)c2ccc(-n3cc(F)cn3)nc2)CC[C@H](c2nc(C)cc(Nc3cc(C)[nH]n3)n2)CC1 [pralsetinib] ... -4.32
9. CCn1c(=O)c(-c2cc(NC(=O)Nc3ccccc3)c(F)cc2Br)cc2cnc(NC)cc21 [ripretinib] ... 8.51
10. CCN1CCN(c2ccc(Nc3cc(N(C)C(=O)Nc4c(Cl)c(OC)cc(OC)c4Cl)ncn3)cc2)CC1 [infigratinib] ... -1.75
11. COc1cc2ncnc(Nc3ccc(F)c(Cl)c3)c2cc1NC(=O)/C=C/CN1CCCCC1 [dacomitinib] ... 91
